// data source = the supplement of paper PMC6555819

system: RARb homodimer (NR concentration 270 nM); experiment: PBM binding z-score (relative to random genomic background probes); higher = stronger binding; sequences stand for … in GC…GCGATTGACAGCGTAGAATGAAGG
Lab note: compare PBM binding z-score against 3. Equal or greater, write condition met. Smaller, write condition not met.

1) GGAACGAGGGCATTCGAGTTGAAAGCATGGCGAT
condition not met

Moving on to the next sequence.
Given `AGAATGAGGTAATTAAGATCAGGGAATTGCGGTC` , state whether its PBM binding z-score is at least 3.
condition not met

====

system: PPARg:RXRa 30nM:10nM, anti-RXR (NR concentration 30 nM, RXRa partner concentration 10 nM); experiment: PBM binding z-score (relative to random genomic background probes); higher = stronger binding; sequences stand for … in GC…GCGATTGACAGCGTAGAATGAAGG
Lab note: compare PBM binding z-score against 3. Equal or greater, write True. Smaller, write False.

1. CCGACTGGGTCAGAAAGGTTACCATACCATCCGG
False
2. TCTATTAGTTGAAGGACAACCGACGAGTCCGTTT
True
3. TTACCAAGGTGAAAGGTCGCTGATGCACGCCTTG
True
4. CCAGACAGGTGAGAAGGTATCTCAGCCTCGATTA
False
5. TCTTGTAGATAAACAGGAGGTTAAGAAAGATCGA
False

Given `TCATATAGGTAATTGCTAGGTGAAAGTCCGATCT` , state whether its PBM binding z-score is at least 3.
True

And what about the sequence `CCTACTGGGCCACGAAAGGTCATTGAGTCAGTGA` ?
False

And what about the sequence `CCGATTGGGGCAAAGGTTACCATACTCAGTACGA` ?
True

====

tested on: PPARg:RXRa IVT, anti-PPARg (NR concentration 270 nM, RXRa partner concentration 90 nM); test: PBM binding z-score (relative to random genomic background probes); higher = stronger binding; sequences stand for … in GC…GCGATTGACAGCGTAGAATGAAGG
What PBM binding z-score was measured for each of the following?
Numbers only.

Solved entries (count: 3):
1) TCTTGTAGATCACTAGAGGTTAAGAAAGTGCGCT
1.16
2) CCAGACACGTGAGAAGGTAACTCAGCCTCGATTA
-0.531
3) AATACAGGGTCACTAGGCCATAGTAGGTACGAAT
6.47

Would you mind giving PBM binding z-score for every sequence in the list below?
1. TCATATAGTTAAACAGGTGAAAGTCCGTAAGTTA
2. CGTCCAAGGTCAAAGGGCAGTGAAGAGATGACGG
3. CGTCCGAGGTCAGAGAGGTCAGTGAATGCCGAGT
4. CGAACTAGGTCAGAACAGGACAGTAAAGGATGAT
5. CATACAGGGTCAGCTAGGCCAGACTAGGGACGGC
6. TCATATAGTTAAAGGTGAAAGTCGAACGATATGA
7. CCTACTGGGCCATTCAGATGTCATTGATCATATG

1. 1.54
2. 4.49
3. 4.09
4. 7.22
5. 2.37
6. 1.85
7. 3.44

Would you mind giving PBM binding z-score for every sequence in the list below?
1. GATACAGTGTCAGCTAGAGGCCAGAGTATGGAAA
2. AGAACGAGGGCAAGGAGTTGATAGCACGGGTGGC

0.187
2.09

====

test system: RARg homodimer (NR concentration 270 nM); assay: PBM binding z-score (relative to random genomic background probes); higher = stronger binding; sequences stand for … in GC…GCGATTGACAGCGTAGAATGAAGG
What PBM binding z-score was measured for each of the following?
Give bare numbers.

Solved entries (count: 10):
1. TCTCGGAGGACACGAAGGTCTGAGCTTTCCAGAG
1.01
2. TCTTCTAGGTCAACGATGGTCAGCTAATCTGCTA
5.58
3. TCTTGTAGCTCAATAGAGGTTAAGAAAGTGCGCT
0.113
4. TTACCAAGGTGAAACGTCGTTGATGCACGCCTTG
0.555
5. CGAACTAGGTCATTTACAGGACAGTGAATAGTAA
4.09
6. CAAACTAGGTCAAGAGGTCAGAGTCCGCTTCCCG
7.22
7. AGAACGAGGGCAATGAGTTGATACCACGGGTGGC
1.7
8. GCTGCTAGGTCAACTGATGGTCAGGTAAAGCTCG
5.23
9. CCTTACGGGTCACTAACAGGTTATAGCATTTGGA
4.12
10. TCTAGTTTGTCACGGAGGTCACACACGACGGGTA
4.16

Would you mind giving PBM binding z-score for every sequence in the list below?
1. CAAACTAGGGCACAGAGGTCAAAGTCCGTGCGTA
2. TAGACTAGGTCAGATCGGGCCAGTATACGCTATA
3. AATACAGGGTCATCGTTGGCCAGAGTACGCACAG
4. CCTTACGGCTCAAGGTTATAGCACGGGTGGTACG
5. TGAATGAGATTAAAGATCAGGGAACGTGGCGTCG

[5.63, 3.56, 5.14, 0.278, 0.247]

====

test system: FXR:RXRa (NR concentration 270 nM, RXRa partner concentration 90 nM); assay: PBM binding z-score (relative to random genomic background probes); higher = stronger binding; sequences stand for … in GC…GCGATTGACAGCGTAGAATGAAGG
MEASUREMENT_TYPE: PBM binding z-score
One number for each entry.

1. CGTCCAAGGTCAGAGATGTCAGTGAATGCCGAGT
4.67
2. CGTCAAAGTTCATCTAAGGTAACGTAAAGCACGC
6.89

Would you mind giving PBM binding z-score for every sequence in the list below?
1. CCTAGCAGGCAAGGGTCACTCAAGCATTTCGCTT
2. CCTTACGGGTCACTTCAGGTTATAGCATCGGAGT

2.9
5.1

Would you mind giving PBM binding z-score for every sequence in the list below?
1. CCTTACGGGTCACTCCAGGTTATAGGATCGGAGT
2. CAAACTAGGTCATGAAAGGTCAAAGTCGAATGAC
3. CAAACTAAGTCAAAGGTCAAAGTCGAGCCAACCA

4.94
7.56
6.46

Would you mind giving PBM binding z-score for every sequence in the list below?
1. CGAACTAGGTAATTGACAGGACAGTGAATAGTAA
2. ATATGTAGGTTACATCCGGGTCACTCAGGCTATG
3. AGAACGAGGGCACGCTGAGTTGATATCAGAGTAG
4. AGAATGAGGTTATACGTAGATCGGGGAAGAAAGT

-0.398
2.08
0.635
2.27

Any idea what PBM binding z-score came out for `CCTAGCAGGCCAATCTGAGTCACTCAAGGCTTGA` on FXR:RXRa (NR concentration 270 nM, RXRa partner concentration 90 nM)?
-0.524

====

What PBM binding z-score was measured for each of the following?
test system: PPARg DBDmut IVT, anti-PPARg (DBD mutation: PPARg1 K132A/R137A, NR concentration 270 nM); assay: PBM binding z-score (relative to random genomic background probes); higher = stronger binding; sequences stand for … in GC…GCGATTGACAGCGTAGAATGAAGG
One number for each entry.

Would you mind giving PBM binding z-score for every sequence in the list below?
1. GGAAGGAGGGCAAGTTGATAGCAGAGTTTGATGG
2. ACTAGCTGGTCAGCTGAGGTCACACACAATTCGG
3. AGTCAAAGTCCACTAGGTAACGTAAGATTCAGCT
4. TCTGCTAGGTCAACGATGGTCAGCCAATCTGCTA
5. GCTCCTAGGTCAGGTTGGTCAGCTAACGGGTACG
6. ACTAGCAGGCCAAGTTGGGGTCACTCAAACAAAG

0.837
-0.428
0.228
-0.247
-0.79
-0.538

Would you mind giving PBM binding z-score for every sequence in the list below?
1. ATCTCTAGGGAACCAAGTTCAGTGAATGCCGAAC
2. GATACAGGGTCAGCAAGAGGCCAGAGTATGGAAA
3. TCTAGGAGGACACGAAAGGTCAGAGCTCGACATC
4. GCTAATTGGTCAGTAAAAGGTCACACACCGGTCG

1. 0.863
2. -0.37
3. -0.502
4. 1.23

Would you mind giving PBM binding z-score for every sequence in the list below?
1. CTGACTGGGGCAGAAAGGTTACCATACCATCCGG
2. TCTTGTAGATCCAGCAGGTTAAGAAAGCCTGAGT

0.141
-0.28

====

test system: PPARg DBDmut IVT, anti-PPARg (DBD mutation: PPARg1 K132A/R137A, NR concentration 270 nM); assay: PBM binding z-score (relative to random genomic background probes); higher = stronger binding; sequences stand for … in GC…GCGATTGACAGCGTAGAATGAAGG
Lab note: compare PBM binding z-score against 0.2. Equal or greater, write YES. Smaller, write NO.

For orientation, consider the following solved cases.
1) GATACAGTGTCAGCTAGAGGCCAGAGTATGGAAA
NO
2) CCTGCTAGGTCAATGGTTAGCTAAAGCAGCTCGC
NO
3) TCTTGTAGATCAAAGGTTAATAAAGCCGAAGCCT
YES
4) CCTACTGGGCCATCTGGTCATTGATATCAACGTT
YES

Given `TAGCCTAGGTCAGATCGAGCCAGTATACGCTATA` , state whether its PBM binding z-score is at least 0.2.
NO

And what about the sequence `TGAATGAGGTTATACGATCAGGGAACGTTGCAAA` ?
YES

And what about the sequence `CCTAGCAGGCCAGGGTCACTAAAGCATTTCGCTT` ?
NO

And what about the sequence `TCGAGTCGGTTAGGGGCATTCAGAATGGCGTCGA` ?
NO

And what about the sequence `CAAACTGGGTCACGAAAGGTCAAAGTCGAATGAC` ?
YES

And what about the sequence `TCTATTAGTTGATTAGGGCAACCAAAACAGCGGA` ?
YES

And what about the sequence `ATCTCTAGGCAACAAGTTCAGTGAAAGAGAGGAC` ?
NO

And what about the sequence `AGAAAGAGGTTAAGATCAGGGAAACAGAATACAT` ?
YES
